# Target Or System: Tyrosine-protein kinase JAK2 (Homo sapiens)
# Test: Inhibition of human JAK2 assessed as residual activity at 0.1 uM relative to control
Quantity Name: Activity (%)

COc1ccc2c(c1)c(/C=C1\C(=O)Nc3ccc(S(N)(=O)=O)cc31)cn2C :: 90
CN(C)S(=O)(=O)c1ccc2c(c1)/C(=C/c1cn(C)c3ccc(O)cc13)C(=O)N2 :: 78
COc1ccc2[nH]cc(/C=C3\C(=O)Nc4ccc(S(N)(=O)=O)cc43)c2c1 :: 91
Cn1cc(/C=C2\C(=O)Nc3ccc(S(N)(=O)=O)cc32)c2ccccc21 :: 85
CNS(=O)(=O)c1ccc2c(c1)/C(=C/c1cn(C)c3ccc(OC)cc13)C(=O)N2 :: 89
COc1ccc2c(c1)c(/C=C1\C(=O)Nc3ccc(S(=O)(=O)N(C)C)cc31)cn2C :: 88
